System: hepatocellular carcinoma cell line Hep3B
protocol details: Growth inhibition of Hep3B cells, 48 hr treatment, Hoechst 33342 nucleus count (GE InCell 2200)
Assay type: cell-based
condition notes: Homo sapiens, Table 5, ratio of number of tumor cells treated with 10 μM compound to non-treated cells
measured property: viability at 10 µM (%)
Report only the number, with the unit % understood.

Ask: Query (compound): CCCOc1ccc(Oc2sc(NC(=O)c3ccc([N+](=O)[O-])s3)nc2-c2ccc(C(C)(C)C)cc2)cc1 [Compound 5-95] ; field requested: viability at 10 µM
Result: 38

Ask: Look at this compound and give its reported viability at 10 µM. CCCOc1ccc(-c2nc(NC(=O)c3ccc([N+](=O)[O-])s3)sc2Oc2ccc(Cl)c(Cl)c2)cc1 [Compound 5-44]
Result: 41

Ask: I'd like to know its viability at 10 µM. The compound in question is CCCCOc1ccc(-c2nc(NC(=O)c3ccc([N+](=O)[O-])s3)sc2Oc2ccc(C(C)(C)CC)cc2)cc1 [Compound 5-98]
Result: 50

Ask: Given the entry CCCOc1ccc(-c2nc(NC(=O)c3ccc([N+](=O)[O-])s3)sc2Oc2ccc(C(F)(F)F)cc2)cc1 [Compound 5-26] , report its measured viability at 10 µM.
Result: 24

Ask: Query: viability at 10 µM; subject: CCCCOc1ccc(-c2nc(NC(=O)c3ccc([N+](=O)[O-])s3)sc2Oc2ccc(F)cc2)cc1 [Compound 5-73]
Result: 49

Ask: Quick one: viability at 10 µM for CCCOc1ccc(-c2nc(NC(=O)c3ccc([N+](=O)[O-])s3)sc2Oc2ccc(F)cc2)cc1 [Compound 5-30] ?
Result: 40

Ask: Quick check: viability at 10 µM of CN(C)CC#Cc1ccc(-c2nc(NC(=O)c3ccc([N+](=O)[O-])s3)sc2Oc2ccccc2)s1 [Compound 5-46] ?
Result: 53

Ask: Field request: viability at 10 µM | item: CCC(C)(C)c1ccc(-c2nc(NC(=O)c3ccc([N+](=O)[O-])s3)sc2Oc2ccccc2)cc1 [Compound 5-59]
Result: 38

Ask: Quick one: viability at 10 µM of CC(C)(C)C#Cc1ccc(-c2nc(NC(=O)c3ccc([N+](=O)[O-])s3)sc2Oc2ccccc2)s1 [Compound 5-41] ?
Result: 41

Ask: Requested field: viability at 10 µM. Item: O=C(Nc1nc(-c2ccc(F)cc2)c(Oc2ccc(OC(F)(F)F)cc2)s1)c1ccc([N+](=O)[O-])s1 [Compound 5-33]
Result: 40

Ask: What does the record list as viability at 10 µM for Cc1cc(Oc2sc(NC(=O)c3ccc([N+](=O)[O-])s3)nc2-c2ccc(C(C)(C)C)cc2)cc(C)c1Br [Compound 5-99] ?
Result: 40

Ask: # lookup: viability at 10 µM of CCCc1ccc(-c2nc(NC(=O)c3ccc([N+](=O)[O-])s3)sc2Oc2ccccc2)cc1 [Compound 5-77]
Result: 33

Ask: If you can, please state the reported viability at 10 µM value of CC(C)(C)c1ccc(Oc2sc(NC(=O)c3ccc([N+](=O)[O-])s3)nc2-c2ccc(C(C)(C)C)cc2)cc1 [Compound 5-96] .
Result: 47

Ask: So what's the measured viability at 10 µM for this one? O=C(Nc1nc(-c2ccc(C(F)(F)F)cc2)c(Oc2ccccc2F)s1)c1ccc([N+](=O)[O-])s1 [Compound 5-83]
Result: 36

Ask: So what does the record say about viability at 10 µM for O=C(Nc1nc(-c2ccc(Br)s2)c(Oc2ccccc2)s1)c1ccc([N+](=O)[O-])s1 [Compound 5-42] ?
Result: 55

Ask: Dear colleague, I am looking for the recorded viability at 10 µM of the following compound: CCCCOc1ccc(-c2nc(NC(=O)c3ccc([N+](=O)[O-])s3)sc2Oc2ccc(Br)cc2)cc1 [Compound 5-86]
Result: 24

Ask: Which viability at 10 µM value is on record for CCCOc1ccc(-c2nc(NC(=O)c3ccc([N+](=O)[O-])s3)sc2Oc2ccc(F)cc2Cl)cc1 [Compound 5-45] ?
Result: 28

Ask: State the recorded viability at 10 µM for this entry: CC(C)(C)c1ccc(-c2nc(NC(=O)c3ccc([N+](=O)[O-])s3)sc2Oc2ccc(F)cc2)cc1 [Compound 5-20]
Result: 62

Ask: Param item = CCCOc1ccc(-c2nc(NC(=O)c3ccc([N+](=O)[O-])s3)sc2Oc2cc(C)c(Br)c(C)c2)cc1 [Compound 5-28] ; retrieve measured viability at 10 µM.
Result: 32

Ask: // lookup viability at 10 µM for CCC(C)(C)c1ccc(Oc2sc(NC(=O)c3ccc([N+](=O)[O-])s3)nc2-c2ccc(C(C)(C)C)cc2)cc1 [Compound 5-101]
Result: 48

Ask: Find the recorded viability at 10 µM belonging to CC(C)(C)c1ccc(-c2nc(NC(=O)c3ccc([N+](=O)[O-])s3)sc2Oc2cccc(F)c2)cc1 [Compound 5-22] and report it.
Result: 30

Ask: Given CCCCOc1ccc(-c2nc(NC(=O)c3ccc([N+](=O)[O-])s3)sc2Oc2cc(C)cc(C)c2)cc1 [Compound 5-106] , state its recorded viability at 10 µM.
Result: 29

Ask: Item under review: CCCOc1ccc(-c2nc(NC(=O)c3ccc([N+](=O)[O-])s3)sc2Oc2cccc3cccnc23)cc1 [Compound 5-52] . Reported viability at 10 µM?
Result: 41

Ask: Item under review: NCCCCCOc1ccc(-c2nc(NC(=O)c3ccc([N+](=O)[O-])s3)sc2Oc2ccccc2)cc1 [Compound 5-92] . Reported viability at 10 µM?
Result: 46

Ask: Value lookup for viability at 10 µM; key = CCCc1ccc(Oc2sc(NC(=O)c3ccc([N+](=O)[O-])s3)nc2-c2ccc(C(C)(C)C)cc2)cc1 [Compound 5-88]
Result: 36

Ask: Would you kindly share the measured viability at 10 µM for CCCOc1ccc(-c2nc(NC(=O)c3ccc([N+](=O)[O-])s3)sc2Oc2ccccc2OCC)cc1 [Compound 5-21] ?
Result: 28

Ask: Reported viability at 10 µM, compound CCCCc1ccc(-c2nc(NC(=O)c3ccc([N+](=O)[O-])s3)sc2Oc2ccccc2F)cc1 [Compound 5-80] : ____
Result: 26

Ask: Which viability at 10 µM value is on record for O=C(Nc1nc(-c2ccc(OC(F)(F)F)cc2)c(Oc2ccccc2F)s1)c1ccc([N+](=O)[O-])s1 [Compound 5-85] ?
Result: 34

Reference source: patent US11174253B2
